tested.on: T1, EBV minimal peptide PPSTSSKLRPRWTFT (spotted for dot blot) (Human herpesvirus 4 (Epstein-Barr …))
T1 construct: also called EBV gp350 minimal peptide; 72153; source: "recombinant peptide" spotted on nitrocellulose
T1 chain: PPSTSSKLRPRWTFT
method.summary: far-Western, overlay or dot blot
run.parameters: one partner purified

[
  {
    "binder": "EBV_c77 (antibody, V domains shown, recombinant human IgG) VH: QVHLVQSGAEVKRSGASVKVSCKASGFTFTNHDINWVRQAPGQGLEWMGWINPNSGNTGFAQKFQGRVTLTRNNSITTAYMELRGLRYEDTAIYYCARAFCNSDRCSPELFDPWGQGTLVTVSS VL: QSVLTQPPSVSADPGQRVTISCSGTGSNIGNNYVSWYQQLPGTAPRFLIYDNNKRTSGIPDRFSGSKSGTSATLAITGLQTGDEADYYCATWDTSLRGVVFGGGTKLTVL",
    "binding result": "binds"
  },
  {
    "binder": "EBV_c120 (antibody, V domains shown, recombinant human IgG; source: Expi293 or ExpiCHO, recombinant; filtered culture supernatant) VH: QVHLVQSGAEVKKPGASVKVSCKASGFAFTTYDINWVRQAAGQGLEWMGWMNPNSGNRGYAQKFQGRVTMTRNTSITTAYMELTSLTSEDTAVYYCARAYCNSNRCSPELFDPWGQGTQVTVSS VL: QSVLTQPPSVSAAPGQMVTISCSGSSSNIGNNFVSWYQQLPGTVPKYVIYDNNKRPSGIPERFSGSRSGTSATLGITGLQTGDEADYYCATWDSSLRGVVFGGGTKLTVL",
    "binding result": "binds"
  },
  {
    "binder": "EBV_c127 (antibody, V domains shown, recombinant human IgG) VH: QVHLVQSGAEVKKFGASVQVSCKASGFTFTNHDINWVRQAPGQGLEWMGWINPNSGNTGFAQKFRGRVTLTRNNSITTAYMELRGLRYEDTAIYYCARAFCNSDRCSPELFDPWGQGTLVTVSS VL: QSVLTQPPSVSADPGQRVTISCSGTSSNIGKNFVSWYQQFPGTAPKFLIYDNNKRASGIPDRFSGSKSGTSAILAITGLQTGDEADYYCATWDNSLRGVLFGGGTKLTVL",
    "binding result": "binds"
  }
]
